Assay summary: Thermogravimetric analysis (TGA) of salts or cocrystals
Type: physicochemical
Measurement context: nitrogen flow, heating rate of 10° C./min
Parameter measured: TGA no weight loss up to

Smiles repr: CC[C@@H](c1cccc(O)c1)[C@@H](C)CN(C)C.CC[C@@H](c1cccc(O)c1)[C@@H](C)CN(C)C.O=C(O[C@H](C(=O)O)[C@H](OC(=O)c1ccccc1)C(=O)O)c1ccccc1
Result: to 140 °C

Smiles repr: CC[C@@H](c1cccc(O)c1)[C@@H](C)CN(C)C.O=C(O)CCCCCCCCC(=O)O
Result: to 140 °C
